Each record here notes measured Binding Signal (fold over 6E7 parental antibody).
Target: T1, human TREM2 (triggering receptor expressed on myeloid cells 2) (human) (UniProt Q9NZC2)
T1 sequence (looked up): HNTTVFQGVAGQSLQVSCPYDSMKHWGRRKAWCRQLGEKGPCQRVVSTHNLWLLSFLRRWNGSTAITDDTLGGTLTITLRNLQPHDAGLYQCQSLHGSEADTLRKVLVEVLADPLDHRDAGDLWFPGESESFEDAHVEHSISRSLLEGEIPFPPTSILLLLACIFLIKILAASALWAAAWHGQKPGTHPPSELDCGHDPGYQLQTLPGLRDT
Experiment: 2nd screen, 10 nM Ab
VALUE TYPE: Binding Signal (fold over 6E7 parental antibody) (fold)

| BINDER | DATA VALUE |
| --- | --- |
| 6E7 antibody affinity modulation variant V65 (antibody, V domains shown) VH: EVQLVQSGAEVKKPGESLKISCKGSGYSFTSYWIAWVRQMPGKGLEWMGIIYPGDSDTRYSPSFQGQVTISADKSISTAYLQWSSLKASDTAMYFCARSRTFYYDSSDYFDYWGQGTLVTVSS VL: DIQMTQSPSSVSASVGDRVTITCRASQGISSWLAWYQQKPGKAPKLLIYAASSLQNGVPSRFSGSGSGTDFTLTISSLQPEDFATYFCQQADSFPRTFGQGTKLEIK | 2.75 |
| 6E7 antibody affinity modulation variant V37 (antibody, V domains shown) VH: EVQLVQSGAEVKKPGESLKISCKGSGYSHTSYWIAWVRQMPGKGLEWMGIIYPGDSDTRYSPSFAGQVTISADKSISTAYLQWSSLKASDTAMYFCARSRTFYYDSSDYFDYWGQGTLVTVSS VL: DIQMTQSPSSVSASVGDRVTITCRASQGISSWLAWYQQKPGKAPKLLIYAASSLQWGVPSRFSGSGSGTDFTLTISSLQPEDFATYFCQQADSYPRTFGQGTKLEIK | 3.49 |
| 6E7 antibody affinity modulation variant V29 (antibody, V domains shown) VH: EVQLVQSGAEVKKPGESLKISCKGSGYSFKSYWIAWVRQMPGKGLEWMGIIYPGDSDTRYSPSFQGQVTISADKSISTAYLQWSSLKASDTAMYFCARQRTFYYDSSDYFDYWGQGTLVTVSS VL: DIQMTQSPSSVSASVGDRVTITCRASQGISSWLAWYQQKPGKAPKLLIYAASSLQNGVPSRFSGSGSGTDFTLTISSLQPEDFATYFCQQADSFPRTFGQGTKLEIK | 1.67 |
